System: SNB-19
assay info: NCI tumour cell line growth inhibition, 48 h
Activity calls are given as the source filed them. Rule as the data show it: active = GI50 up to about 1.1 µM and inactive = higher.
Your answer must be one of the following: y for active, n for inactive

Past entries and their recorded results:
CCN(CC)C(=S)N/N=C/c1ccccn1 : y
CC(=O)NS(=O)(=O)c1ccc(NC(=O)c2c3ccccc3nc3ccccc23)cc1 : n

// return assay outcome for "O=C(O)CCCc1ccc2ccccc2c1"
n

What call does the record list for "Cc1nc2cn3c(c2c(=O)[nH]1)CCCCC3" ?
n

Which result was noted for this molecule in the test: "Cc1cc(S(=O)(=O)Nc2n[nH]c(-c3ccc(Cl)cn3)n2)c(S)cc1Cl"
n

----------
Test system: MDA-N
assay info: NCI tumour cell line growth inhibition, 48 h
Activity calls are given as the source filed them. No stated cut-off is given here; in the data, active = GI50 up to about 1.1 µM and inactive = higher.
One label from this list, please: label 1 = active, label 0 = inactive

Answer briefly: the call reported for CCCCCCCCCC1(N=[N+]=[N-])C(=O)c2ccccc2N(C)C1=O (configuration not stated) in this assay.
label 0
